testedSystem: Human RORγ Ligand Binding Domain (RORγ-LBD) (Homo sapiens)
Construct: His6 plus thrombin site) (N); made in house; host or cells: E. coli BL21(DE3), modified pET21a
Sequence (P51449 263-518): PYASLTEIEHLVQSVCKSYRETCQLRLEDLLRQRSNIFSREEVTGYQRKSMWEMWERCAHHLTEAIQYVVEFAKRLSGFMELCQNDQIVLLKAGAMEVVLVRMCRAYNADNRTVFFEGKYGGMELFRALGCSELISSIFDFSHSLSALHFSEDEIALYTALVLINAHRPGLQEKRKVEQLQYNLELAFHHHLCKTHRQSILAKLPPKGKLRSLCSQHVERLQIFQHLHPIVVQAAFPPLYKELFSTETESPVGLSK
assayName: Dual Fluorescence Energy Transfer (FRET) assay: RORγ-LBD / SRC1(2) co-activator peptide interaction
Type: biochemical
assayConditions: RORγ-LBD/SRC1(2) peptide interaction, read-out: mean pIC50 (converted)
valueKind: IC50

Asked: Suppose we examine the molecule "CCc1ccc(N(CC(C)C)S(=O)(=O)c2ccc(OCc3c(C)noc3C)cc2)cc1" ; what IC50 value has been reported?
Given back: ≤ 0.0158 µM

Asked: # query: IC50 of entry Cc1ccc(N(CC(C)C)S(=O)(=O)c2ccc(OCC(O)c3ccncc3)cc2)c(C)c1 (stereo not shown)
Given back: ≤ 0.0158 µM

Asked: Entry "Cc1ccc(C(F)(F)F)cc1N(CC(C)C)S(=O)(=O)c1ccc(OCc2c(C)noc2C)cc1" has what IC50?
Given back: ≤ 0.0158 µM

Asked: // lookup IC50 for "Cc1ccc(N(CC(C)C)S(=O)(=O)c2ccc(CCc3ccncc3)cc2)c(C)c1"
Given back: ≤ 0.0158 µM
